Tested on: reductase RDR
Experiment: Substrate specificity of the reductase RDR (NADH oxidation, decrease in absorbance at 340 nm)
Type: biochemical, Devosia riboflavina IFO 13584
Conditions: substrate 1 mM, NADH 0.25 mM, 100 mM phosphate buffer pH 6.5, 0.33% (v/v) dimethyl sulfoxide, 30° C.
satisfied if % activity (relative value, activity to N-benzyl-3-pyrrolidinone taken as 100%) is below 200%. not satisfied if not; exact matches included in not satisfied.

>  <Molecule>
CC(=O)c1cccc(O)c1 [m-hydroxyacetophenone]

>  <Experimental Target>
reductase RDR

>  <Class>
satisfied

$$$$
>  <Molecule>
CC(=O)CC(=O)OCc1ccccc1 [benzyl acetoacetate]

>  <Experimental Target>
reductase RDR

>  <Class>
not satisfied

$$$$
>  <Molecule>
CCOC(=O)CC(C)=O [ethyl acetoacetate]

>  <Experimental Target>
reductase RDR

>  <Class>
not satisfied

$$$$
>  <Molecule>
CC(=O)c1ccc(F)cc1 [4-fluoroacetophenone]

>  <Experimental Target>
reductase RDR

>  <Class>
not satisfied

$$$$
>  <Molecule>
O=Cc1ccc([N+](=O)[O-])cc1 [p-nitrobenzaldehyde]

>  <Experimental Target>
reductase RDR

>  <Class>
not satisfied

$$$$
>  <Molecule>
COc1ccc(C(C)=O)cc1OC [3,4-dimethoxyacetophenone]

>  <Experimental Target>
reductase RDR

>  <Class>
not satisfied

$$$$
>  <Molecule>
COC(=O)C(C)=O [methyl pyruvate]

>  <Experimental Target>
reductase RDR

>  <Class>
not satisfied

$$$$
>  <Molecule>
CC(=O)CC(C)=O [acetylacetone]

>  <Experimental Target>
reductase RDR

>  <Class>
not satisfied

$$$$
>  <Molecule>
COc1cc2c(cc1OC)CC(=O)CC2 [6,7-dimethoxy-2-tetoralone]

>  <Experimental Target>
reductase RDR

>  <Class>
not satisfied

$$$$
>  <Molecule>
O=Cc1cccc(Cl)c1 [m-chlorobenzaldehyde]

>  <Experimental Target>
reductase RDR

>  <Class>
not satisfied

$$$$
>  <Molecule>
CCOC(=O)C(Cl)C(=O)c1ccccc1 (centres unmarked) [ethyl 2-chloro-3-oxo-3-phenyloropionate]

>  <Experimental Target>
reductase RDR

>  <Class>
satisfied

$$$$
>  <Molecule>
O=C1CCCC1 [cyclopentanone]

>  <Experimental Target>
reductase RDR

>  <Class>
satisfied

$$$$
>  <Molecule>
CCOC(=O)C1CCC(=O)C1 (centres unmarked) [ethyl 3-oxocyclopentane carboxylate]

>  <Experimental Target>
reductase RDR

>  <Class>
satisfied

$$$$
>  <Molecule>
CC(=O)c1ccccc1 [acetophenone]

>  <Experimental Target>
reductase RDR

>  <Class>
satisfied

$$$$
>  <Molecule>
CCOC(=O)CC(=O)CO [ethyl 4-hydroxyacetoacetate]

>  <Experimental Target>
reductase RDR

>  <Class>
not satisfied

$$$$
>  <Molecule>
CC(=O)CC(=O)OC(C)(C)C [tert-butyl acetoacetate]

>  <Experimental Target>
reductase RDR

>  <Class>
not satisfied

$$$$
>  <Molecule>
CC1(C)COC(=O)C1=O [dihydro-4,4-dimethyl-2,3-furandione]

>  <Experimental Target>
reductase RDR

>  <Class>
not satisfied

$$$$
>  <Molecule>
COc1ccc2c(c1)CCC(=O)C2 [6-methoxy-2-tetoralone]

>  <Experimental Target>
reductase RDR

>  <Class>
satisfied

$$$$
>  <Molecule>
CCCCCCCCOC(=O)CC(=O)CCl [n-octyl 4-chloroacetoacetate]

>  <Experimental Target>
reductase RDR

>  <Class>
not satisfied

$$$$
>  <Molecule>
CC(=O)c1ccc(Cl)cc1 [p-chloroacetophenone]

>  <Experimental Target>
reductase RDR

>  <Class>
not satisfied

$$$$
>  <Molecule>
O=C(O)CC(=O)C(=O)O [oxalacetic acid]

>  <Experimental Target>
reductase RDR

>  <Class>
satisfied

$$$$
>  <Molecule>
CCC(=O)c1ccccc1 [propiophenone]

>  <Experimental Target>
reductase RDR

>  <Class>
satisfied

$$$$
>  <Molecule>
CC(=O)CCC(=O)O [levulinic acid]

>  <Experimental Target>
reductase RDR

>  <Class>
satisfied

$$$$

----------
Each item that follows carries a reported % activity (relative value, activity to N-benzyl-3-pyrrolidinone taken as 100%).
System: reductase RDR
Test: Substrate specificity of the reductase RDR (NADH oxidation, decrease in absorbance at 340 nm)
Type: biochemical, Devosia riboflavina IFO 13584
Conditions: substrate 1 mM, NADH 0.25 mM, 100 mM phosphate buffer pH 6.5, 0.33% (v/v) dimethyl sulfoxide, 30° C.
Measurement Kind: % activity (relative value, activity to N-benzyl-3-pyrrolidinone taken as 100%)

>  <Compound>
CC(=O)CC(C)C

>  <Unit>
%

>  <Numeric Value>
962

$$$$
>  <Compound>
CCC(=O)C(=O)O

>  <Unit>
%

>  <Numeric Value>
15

$$$$
>  <Compound>
CCC(=O)Cc1ccccc1

>  <Unit>
%

>  <Numeric Value>
147

$$$$
>  <Compound>
O=Cc1ccccc1Cl

>  <Unit>
%

>  <Numeric Value>
9

$$$$
>  <Compound>
CCOC(=O)CC(=O)COCc1ccccc1 [ethyl 4-benzyloxyacetoacetate]

>  <Unit>
%

>  <Numeric Value>
3186

$$$$
>  <Compound>
O=Cc1cccc([N+](=O)[O-])c1

>  <Unit>
%

>  <Numeric Value>
683

$$$$
>  <Compound>
CC(=O)CO [hydroxyacetone]

>  <Unit>
%

>  <Numeric Value>
100

$$$$
>  <Compound>
O=Cc1ccccc1

>  <Unit>
%

>  <Numeric Value>
21

$$$$
>  <Compound>
CC(=O)CCc1ccccc1

>  <Unit>
%

>  <Numeric Value>
410

$$$$
>  <Compound>
CC(=O)c1cccc([N+](=O)[O-])c1

>  <Unit>
%

>  <Numeric Value>
6927

$$$$
>  <Compound>
CCCCCCCCC(=O)C(=O)OCC [ethyl 2-oxodecanoate]

>  <Unit>
%

>  <Numeric Value>
18

$$$$
>  <Compound>
CC(C)=O

>  <Unit>
%

>  <Numeric Value>
194

$$$$
>  <Compound>
COc1ccc2c(c1)CC(=O)CC2

>  <Unit>
%

>  <Numeric Value>
7084

$$$$
>  <Compound>
CCOC(=O)CC(=O)c1ccccc1 [ethyl benzoylacetate]

>  <Unit>
%

>  <Numeric Value>
98

$$$$
>  <Compound>
CC(=O)c1ccncc1

>  <Unit>
%

>  <Numeric Value>
6448

$$$$
>  <Compound>
O=CCCc1ccccc1

>  <Unit>
%

>  <Numeric Value>
685

$$$$
>  <Compound>
CCOC(=O)CC(=O)CN=[N+]=[N-] [ethyl 4-azideacetoacetate]

>  <Unit>
%

>  <Numeric Value>
804

$$$$
>  <Compound>
CC(C=O)c1ccccc1 (stereo not drawn)

>  <Unit>
%

>  <Numeric Value>
706

$$$$
>  <Compound>
O=C(CO)c1ccccc1 [2-hydroxyacetophenone]

>  <Unit>
%

>  <Numeric Value>
30

$$$$
>  <Compound>
CCOC(=O)CC(=O)COC(C)=O [ethyl 4-acetoxyacetoacetate]

>  <Unit>
%

>  <Numeric Value>
4234

$$$$
>  <Compound>
CC(=O)c1ccccn1

>  <Unit>
%

>  <Numeric Value>
13

$$$$
>  <Compound>
CC(=O)C(C)=O

>  <Unit>
%

>  <Numeric Value>
1614

$$$$
>  <Compound>
CC(=O)C1CC1

>  <Unit>
%

>  <Numeric Value>
20

$$$$
>  <Compound>
O=C1CCc2ccccc2C1

>  <Unit>
%

>  <Numeric Value>
1721

$$$$

----------
Each item that follows carries a reported % activity (relative value, activity to N-benzyl-3-pyrrolidinone taken as 100%).
Test system: reductase RDR
Test: Substrate specificity of the reductase RDR (NADH oxidation, decrease in absorbance at 340 nm)
Format: biochemical, Devosia riboflavina IFO 13584
Conditions: substrate 1 mM, NADH 0.25 mM, 100 mM phosphate buffer pH 6.5, 0.33% (v/v) dimethyl sulfoxide, 30° C.
Measurement Kind: % activity (relative value, activity to N-benzyl-3-pyrrolidinone taken as 100%)

>  <Mol>
CCCCC(C)=O

>  <Unit>
%

>  <Numeric Value>
5043

$$$$
>  <Mol>
CC(=O)C=O

>  <Unit>
%

>  <Numeric Value>
345

$$$$
>  <Mol>
O=Cc1ccccc1[N+](=O)[O-]

>  <Unit>
%

>  <Numeric Value>
33

$$$$
